Known Residual rate of oligosaccharides: HPLC purity (%) of a selection of molecules
# METHOD NOTES: Storage stability of Oligosaccharide Crystals (I) and freeze-dried Oligosaccharide (I) powders (residual rate by HPLC)
# Assay type: physicochemical
# ASSAY CONDITIONS: 105° C. in the atmosphere under ordinary pressure; days that passed: 7
Please state the figure in %; there is no need to write the unit.

Example entries and their recorded answers appear below.
The recorded Residual rate of oligosaccharides: HPLC purity (%) for CC(=O)N[C@H]1[C@H](O[C@H]2[C@@H](O)[C@@H](CO)O[C@@H](O[C@H]3[C@H](O)[C@@H](O)C(O)O[C@@H]3CO)[C@@H]2O)O[C@H](CO)[C@@H](O)[C@@H]1O (stereo partly drawn) [Crystals No. 1, GlcNAcβ1, 3Galβ1, 4Glc] is 99.7

So, CC(=O)N[C@H]1[C@H](O[C@H]2[C@@H](O)[C@@H](CO)O[C@@H](O[C@H]3[C@H](O)[C@@H](O)C(O)O[C@@H]3CO)[C@@H]2O)O[C@H](CO)[C@@H](O[C@@H]2O[C@H](CO)[C@H](O)[C@H](O)[C@H]2O)[C@@H]1O (stereo partly drawn) [Freeze-dried Galβ1, 4GlcNAc-β1, 3Galβ1, 4Glc powders] [Galβ1,4GlcNAcβ1,3Galβ1,4Glc] ? Its Residual rate of oligosaccharides: HPLC purity (%) was 96.2

More entries:
Per the records, this molecule ( CC(=O)N[C@H]1[C@H](O[C@H]2[C@@H](O)[C@@H](CO)O[C@@H](O[C@H]3[C@H](O)[C@@H](O)C(O)O[C@@H]3CO)[C@@H]2O)O[C@H](CO)[C@@H](O[C@@H]2O[C@H](CO)[C@H](O)[C@H](O)[C@H]2O)[C@@H]1O (stereo partly drawn) [Crystals No. 2, Galβ1, 4GlcNAcβ1, 3Galβ1, 4Glc] ) has Residual rate of oligosaccharides: HPLC purity (%) equal to 99.0

----------
# METHOD NOTES: Storage stability of Oligosaccharide Crystals (I) and freeze-dried Oligosaccharide (I) powders (residual rate by HPLC)
# Assay type: physicochemical
# ASSAY CONDITIONS: 105° C. in the atmosphere under ordinary pressure; days that passed: 0
Property: Residual rate of oligosaccharides: HPLC purity (%); scope: individual compounds
Give the number; % is assumed, so skip it.

The compound listed as CC(=O)N[C@H]1[C@H](O[C@H]2[C@@H](O)[C@@H](CO)O[C@@H](O[C@H]3[C@H](O)[C@@H](O)C(O)O[C@@H]3CO)[C@@H]2O)O[C@H](CO)[C@@H](O[C@@H]2O[C@H](CO)[C@H](O)[C@H](O[C@@H]3O[C@H](CO)[C@@H](O)[C@H](O)[C@H]3NC(C)=O)[C@H]2O)[C@@H]1O (some centres unmarked) [Crystals No. 3] has a reported Residual rate of oligosaccharides: HPLC purity (%) of 98.8

***
Per the record, CC(=O)N[C@H]1[C@H](O[C@H]2[C@@H](O)[C@@H](CO)O[C@@H](O[C@H]3[C@H](O)[C@@H](O)C(O)O[C@@H]3CO)[C@@H]2O)O[C@H](CO)[C@@H](O[C@@H]2O[C@H](CO)[C@H](O)[C@H](O[C@@H]3O[C@H](CO)[C@@H](O)[C@H](O)[C@H]3NC(C)=O)[C@H]2O)[C@@H]1O (stereo partly drawn) [Freeze-dried GlcNAcβ1, 3Gal-β1, 4GlcNAcβ1, 3Galβ1, 4Glc powd] [GlcNAcβ1,3Galβ1,4GlcNAcβ1,3Galβ1,4Glc] has Residual rate of oligosaccharides: HPLC purity (%) of 98.6
